Assay: chemical genetic growth profiling, strain panel (AID 1159580);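 further: tested at 20 µM; growth read once vehicle control cultures reached saturation at 30 °C; lower values mean less growth of the strain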
Conditions: S. cerevisiae deletion strains, growth OD, locus YDR101C, strain arx1
Among all 5,500 compounds or so, about 2,000 (36%) were called active. Not shown: some 18% with an inconclusive outcome. No stated cut-off is given here; in the data, active means normalized growth mostly below about 0.91 (no sharp cut-off); inconclusive means no clear call, values can overlap the other calls; inactive means mostly above about 0.92. The list shows a part of the results.
Can you answer with just one of these options? active, inactive

# count of solved cases: 3
molecule="CC(C)(C)NCC(O)c1ccc(O)c(CO)c1 (centres undefined)" category_label=inactive
molecule=CC1=CC(=O)c2ccccc2C1=O category_label=active
molecule=Cc1cc(=O)oc2cc(O)c(O)cc12 category_label=inactive

Next item in the queue.
# fetch the recorded call for N[C@@H](CCC(=O)N[C@@H](CS)C(=O)NCC(=O)O)C(=O)O here
inactive

This collection of values is drawn from PubChem BioAssay AID1159580.
